Exercise: for every item that follows, state its recorded fold change of affinity.
- target_system: T1, Human CD3eg linker (human)
- T1 construct: Single-chain construct; also called recombinant human CD3
- T1 chain: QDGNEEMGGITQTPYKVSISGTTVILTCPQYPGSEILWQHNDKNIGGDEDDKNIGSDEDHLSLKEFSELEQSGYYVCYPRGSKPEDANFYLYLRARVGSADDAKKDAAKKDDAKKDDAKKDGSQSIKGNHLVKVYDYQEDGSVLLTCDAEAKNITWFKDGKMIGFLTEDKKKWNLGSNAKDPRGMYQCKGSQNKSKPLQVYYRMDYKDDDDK
- protocol: SPR; fold vs parent H183/L072

Entry H183/L072 VL Q27K (antibody, name in Kabat numbering, V domains shown) VH: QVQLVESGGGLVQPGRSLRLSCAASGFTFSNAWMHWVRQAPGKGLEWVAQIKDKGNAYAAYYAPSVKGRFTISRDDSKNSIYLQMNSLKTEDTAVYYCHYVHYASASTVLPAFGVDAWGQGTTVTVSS VL: DIVMTQSPLSLPVTPGEPASISCQASKELVHMNRNTYLHWYQQKPGQAPRLLIYKVSNRFPGVPDRFSGSGSGTDFTLKISRVEAEDVGVYYCAQGTSVPFTFGQGTKLEIK has what fold change of affinity?
0.8 fold

Entry H183/L072 VL F55M (antibody, name in Kabat numbering, V domains shown) VH: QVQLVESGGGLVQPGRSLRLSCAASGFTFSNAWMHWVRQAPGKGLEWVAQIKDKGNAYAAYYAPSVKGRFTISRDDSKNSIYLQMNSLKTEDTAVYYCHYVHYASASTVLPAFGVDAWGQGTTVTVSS VL: DIVMTQSPLSLPVTPGEPASISCQASQELVHMNRNTYLHWYQQKPGQAPRLLIYKVSNRMPGVPDRFSGSGSGTDFTLKISRVEAEDVGVYYCAQGTSVPFTFGQGTKLEIK has what fold change of affinity?
3.6 fold

Entry H183/L072 VL Q27T (antibody, name in Kabat numbering, V domains shown) VH: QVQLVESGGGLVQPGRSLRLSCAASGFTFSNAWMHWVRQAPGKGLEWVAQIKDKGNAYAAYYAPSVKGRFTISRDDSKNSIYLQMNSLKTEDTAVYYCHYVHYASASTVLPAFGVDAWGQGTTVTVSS VL: DIVMTQSPLSLPVTPGEPASISCQASTELVHMNRNTYLHWYQQKPGQAPRLLIYKVSNRFPGVPDRFSGSGSGTDFTLKISRVEAEDVGVYYCAQGTSVPFTFGQGTKLEIK has what fold change of affinity?
1 fold

Entry H183/L072 VL Y32K (antibody, name in Kabat numbering, V domains shown) VH: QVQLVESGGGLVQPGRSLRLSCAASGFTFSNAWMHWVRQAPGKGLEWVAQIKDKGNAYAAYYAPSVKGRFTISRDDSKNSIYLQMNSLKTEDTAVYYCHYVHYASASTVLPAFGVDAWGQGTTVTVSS VL: DIVMTQSPLSLPVTPGEPASISCQASQELVHMNRNTKLHWYQQKPGQAPRLLIYKVSNRFPGVPDRFSGSGSGTDFTLKISRVEAEDVGVYYCAQGTSVPFTFGQGTKLEIK has what fold change of affinity?
0 fold
